# targetOrTestSystem: HLA-C*05:01
# methodSummary: IEDB peptide-MHC binding, purified MHC/direct/fluorescence; filed as Kd, often an IC50 or EC50 that approximates it; bounds were set here for any values at or beyond the usual limits of such assays
# experimentalContext: source organism: Escherichia coli
measuredQuantity: pKd
pKd here is simply -log10 of the concentration when that concentration is written in mol/L.

# sequence "RAMACSALI" ; its pKd = 6.46

====

# targetOrTestSystem: HLA-A*02:19
# methodSummary: IEDB peptide-MHC binding, purified MHC/competitive/fluorescence; filed as Kd, often an IC50 or EC50 that approximates it; bounds were set here for any values at or beyond the usual limits of such assays
# experimentalContext: source organism: Giardia lamblia ATCC 50803
measuredQuantity: Kd

# sequence "MARPADASM" ; its Kd = ≥ 20 µM

====

# targetOrTestSystem: HLA-A*02:16
# methodSummary: IEDB peptide-MHC binding, purified MHC/competitive/fluorescence; filed as Kd, often an IC50 or EC50 that approximates it; bounds were set here for any values at or beyond the usual limits of such assays
# experimentalContext: source organism: Campylobacter jejuni subsp. jejuni NCTC 11168 = ATCC 700819
measuredQuantity: Kd

# sequence "LELAEITAE" ; its Kd = ≥ 20 µM

====

# targetOrTestSystem: HLA-A*26:01
# methodSummary: IEDB peptide-MHC binding, purified MHC/competitive/radioactivity; filed as Kd, often an IC50 or EC50 that approximates it; bounds were set here for any values at or beyond the usual limits of such assays
# experimentalContext: source organism: Dengue virus 4 Philippines/H241/1956
measuredQuantity: Kd (nM)
Output spec: scalar in nM, unitless text.

# sequence "FTPEAKNSTF" ; its Kd = 653

# sequence "EMCEDTVTY" ; its Kd = 3900

====

# targetOrTestSystem: HLA-B*44:02
# methodSummary: IEDB peptide-MHC binding, purified MHC/direct/fluorescence; filed as Kd, often an IC50 or EC50 that approximates it; bounds were set here for any values at or beyond the usual limits of such assays
# experimentalContext: source organism: Yellow fever virus
pKd: −log10 of the molar value.
measuredQuantity: pKd

# sequence "TKDTNDNNL" ; its pKd = ≤ 4.70

# sequence "IQYVIRAQL" ; its pKd = ≤ 4.70

====

# targetOrTestSystem: HLA-B*15:17
# methodSummary: IEDB peptide-MHC binding, purified MHC/direct/fluorescence; filed as Kd, often an IC50 or EC50 that approximates it; bounds were set here for any values at or beyond the usual limits of such assays
# experimentalContext: source organism: Camelpox virus M-96
Kindly state Kd for each of the entries shown.

# sequence "FENDIDEIL" ; its Kd = ≥ 20 µM

# sequence "KSVTKSSSW" ; its Kd = ≤ 0.001 µM

====

# targetOrTestSystem: HLA-B*51:01
# methodSummary: IEDB peptide-MHC binding, purified MHC/direct/fluorescence; filed as Kd, often an IC50 or EC50 that approximates it; bounds were set here for any values at or beyond the usual limits of such assays
# experimentalContext: source organism: Lyssavirus rabies
pKd: −log10 of the molar value.
measuredQuantity: pKd

# sequence "YLDNVGVHI" ; its pKd = ≤ 4.70

====

# targetOrTestSystem: HLA-B*58:01
# methodSummary: IEDB peptide-MHC binding, purified MHC/direct/fluorescence; filed as Kd, often an IC50 or EC50 that approximates it; bounds were set here for any values at or beyond the usual limits of such assays
# experimentalContext: source organism: Escherichia coli O157:H7
measuredQuantity: Kd

# sequence "PSSKPDWFY" ; its Kd = ≥ 20 µM

====

# targetOrTestSystem: HLA-B*40:01
# methodSummary: IEDB peptide-MHC binding, purified MHC/competitive/fluorescence; filed as Kd, often an IC50 or EC50 that approximates it; bounds were set here for any values at or beyond the usual limits of such assays
# experimentalContext: source organism: Lyssavirus rabies
pKd: −log10 of the molar value.
measuredQuantity: pKd

# sequence "YLDNVGVHI" ; its pKd = ≤ 5.30

====

# targetOrTestSystem: HLA-B*46:01
# methodSummary: IEDB peptide-MHC binding, purified MHC/competitive/fluorescence; filed as Kd, often an IC50 or EC50 that approximates it; bounds were set here for any values at or beyond the usual limits of such assays
# experimentalContext: source organism: Orthohantavirus negraense
measuredQuantity: Kd

# sequence "SLLFREVWK" ; its Kd = ≥ 20 µM

====

# targetOrTestSystem: HLA-A*02:12
# methodSummary: IEDB peptide-MHC binding, purified MHC/competitive/fluorescence; filed as Kd, often an IC50 or EC50 that approximates it; bounds were set here for any values at or beyond the usual limits of such assays
# experimentalContext: source organism: Burkholderia mallei SAVP1
measuredQuantity: Kd

Simply: "YVTPRALEL" , HLA-A*02:12, Kd = ≥ 10 µM

====

Kindly state IC50 for each of the entries shown.
# targetOrTestSystem: HLA-A*11:01
# methodSummary: IEDB peptide-MHC binding, purified MHC/competitive/fluorescence; bounds were set here for any values at or beyond the usual limits of such assays
# experimentalContext: source organism: Sudan ebolavirus
Output spec: scalar in µM, unitless text.

# sequence "RKYSDLVPK" ; its IC50 = 4.13

# sequence "EWAFWENKK" ; its IC50 = 10.8

# sequence "QTNTKATGK" ; its IC50 = 2.19

# sequence "SSYYATSYL" ; its IC50 = 2.7

====

# targetOrTestSystem: HLA-B*18:01
# methodSummary: IEDB peptide-MHC binding, purified MHC/competitive/fluorescence; bounds were set here for any values at or beyond the usual limits of such assays
# experimentalContext: source organism: Monodelphis domestica
measuredQuantity: pIC50
pIC50 here is simply -log10 of the concentration when that concentration is written in mol/L.

# sequence "LEYFQFVKKLL" ; its pIC50 = 5.33

====

# targetOrTestSystem: HLA-A*02:06
# methodSummary: IEDB peptide-MHC binding, purified MHC/competitive/radioactivity; filed as Kd, often an IC50 or EC50 that approximates it; bounds were set here for any values at or beyond the usual limits of such assays
# experimentalContext: source organism: Dengue virus 4 Philippines/H241/1956
measuredQuantity: Kd (nM)
Output spec: scalar in nM, unitless text.

# sequence "TLMLVALLGA" ; its Kd = 378

====

# targetOrTestSystem: HLA-B*39:01
# methodSummary: IEDB peptide-MHC binding, purified MHC/competitive/fluorescence; filed as Kd, often an IC50 or EC50 that approximates it; bounds were set here for any values at or beyond the usual limits of such assays
# experimentalContext: source organism: Vaccinia virus WR
measuredQuantity: Kd

# sequence "FENDIDEIL" ; its Kd = ≥ 20 µM

====

# targetOrTestSystem: HLA-A*02:01
# methodSummary: IEDB peptide-MHC binding, purified MHC/direct/fluorescence; filed as Kd, often an IC50 or EC50 that approximates it; bounds were set here for any values at or beyond the usual limits of such assays
# experimentalContext: source organism: Bacillus anthracis str. A0488
measuredQuantity: Kd

# sequence "WDAYIPHYV" ; its Kd = ≥ 20 µM

====

# targetOrTestSystem: HLA-A*02:01
# methodSummary: IEDB peptide-MHC binding, purified MHC/competitive/fluorescence; filed as Kd, often an IC50 or EC50 that approximates it; bounds were set here for any values at or beyond the usual limits of such assays
# experimentalContext: source organism: Escherichia coli
measuredQuantity: pKd
pKd here is simply -log10 of the concentration when that concentration is written in mol/L.

Simply: "RAMACSALI" , HLA-A*02:01, pKd = 7.58

====

# targetOrTestSystem: HLA-B*51:01
# methodSummary: IEDB peptide-MHC binding, purified MHC/competitive/radioactivity; filed as Kd, often an IC50 or EC50 that approximates it; bounds were set here for any values at or beyond the usual limits of such assays
# experimentalContext: source organism: Triticum aestivum
measuredQuantity: pKd
pKd here is simply -log10 of the concentration when that concentration is written in mol/L.

# sequence "FPSQQPYL" ; its pKd = 8.45

====

Kindly state Kd for each of the entries shown.
# targetOrTestSystem: HLA-A*02:01
# methodSummary: IEDB peptide-MHC binding, purified MHC/direct/fluorescence; filed as Kd, often an IC50 or EC50 that approximates it; bounds were set here for any values at or beyond the usual limits of such assays
# experimentalContext: source organism: Giardia intestinalis

# sequence "DYAMHGTVF" ; its Kd = ≥ 20 µM

# sequence "GYTPGQQFY" ; its Kd = ≥ 20 µM

====

# targetOrTestSystem: HLA-A*02:01
# methodSummary: IEDB peptide-MHC binding, purified MHC/direct/fluorescence; filed as Kd, often an IC50 or EC50 that approximates it; bounds were set here for any values at or beyond the usual limits of such assays
# experimentalContext: source organism: Escherichia coli
measuredQuantity: pKd
pKd here is simply -log10 of the concentration when that concentration is written in mol/L.

# sequence "RILAYGPCL" ; its pKd = 6.38

====

# targetOrTestSystem: HLA-B*15:09
# methodSummary: IEDB peptide-MHC binding, purified MHC/direct/fluorescence; filed as Kd, often an IC50 or EC50 that approximates it; bounds were set here for any values at or beyond the usual limits of such assays
# experimentalContext: source organism: Clostridium botulinum NCTC 2916
pKd: −log10 of the molar value.
measuredQuantity: pKd

# sequence "RVYINVVVK" ; its pKd = ≤ 4.70
